Value source: the METLIN SMRT retention time set (Domingo-Almenara et al. 2019)

- method summary: gradient 5% acetonitrile 3 min, to 50% in 2 min, to 85% in 15 min, held 3 min, 100 µL/min
- test context: column: Zorbax Extend-C18 2.1 x 50 mm; eluents: water / acetonitrile, 0.1% formic acid
Quick reference for RP-LC retention time among some compounds

[
  {
    "compound": "COc1ccc(CNC(=O)Cn2nc3c(N4CCSCC4)nccn3c2=O)cc1",
    "RP-LC retention time [s]": 762
  },
  {
    "compound": "CCCC(=O)NC1(c2nc(-c3ccncc3)no2)CCCCC1",
    "RP-LC retention time [s]": 747
  },
  {
    "compound": "O=C(Nc1cccn2c(C3CCC3)nnc12)c1ccncc1",
    "RP-LC retention time [s]": 665
  },
  {
    "compound": "CCc1ccccc1S(=O)(=O)N1CCC(C(=O)NCCc2csc(-c3ccccc3)n2)CC1",
    "RP-LC retention time [s]": 1010
  },
  {
    "compound": "CCC(=O)N1CCc2cc(N3CC(C(=O)NC4CCCCC4)CC3=O)ccc21 (stereo not drawn)",
    "RP-LC retention time [s]": 728
  },
  {
    "compound": "Cc1cccc(-c2noc(C3CCCN3S(=O)(=O)c3cc(C)ccc3C)n2)c1 (stereo not drawn)",
    "RP-LC retention time [s]": 1260
  },
  {
    "compound": "O=c1c2nc(-c3ccccc3)cn2ccn1-c1cccc(Cl)c1",
    "RP-LC retention time [s]": 852
  },
  {
    "compound": "Cc1ccc(C)c(NC(=O)Cn2c(N)nc(C)c(C)c2=O)c1",
    "RP-LC retention time [s]": 631
  },
  {
    "compound": "Cc1ccc(CNC(=O)Cn2nc(N3CCCCCC3)c3ccccc3c2=O)cc1",
    "RP-LC retention time [s]": 1100
  },
  {
    "compound": "COCCCn1c(=O)c2ccccc2n(Cc2nc(-c3cccc(Br)c3)no2)c1=O",
    "RP-LC retention time [s]": 1190
  },
  {
    "compound": "Cc1ccc(-c2c(C#N)c(N)nc(SCC(=O)NCc3ccccc3)c2C#N)cc1",
    "RP-LC retention time [s]": 844
  },
  {
    "compound": "O=C(NC1CCS(=O)(=O)C1)C1CCN(c2cnn(Cc3ccccc3)c(=O)c2)C1 (stereo not drawn)",
    "RP-LC retention time [s]": 662
  },
  {
    "compound": "Cn1cnc(S(=O)(=O)N2CCCCC2c2nc(-c3ccncc3)n[nH]2)c1 (stereo not drawn)",
    "RP-LC retention time [s]": 646
  },
  {
    "compound": "O=C(CCc1nnc2ccc(NCc3ccccc3Cl)nn12)N1CCN(c2ccccn2)CC1",
    "RP-LC retention time [s]": 613
  },
  {
    "compound": "CC(C)C(=O)N1CCC(Cc2noc(C3CC3)n2)C1 (stereo not drawn)",
    "RP-LC retention time [s]": 692
  },
  {
    "compound": "Cc1onc(-c2ccccc2Cl)c1C(=O)NC1C(=O)N2C1SC(C)(C)C2C(=O)O (stereo not drawn)",
    "RP-LC retention time [s]": 815
  },
  {
    "compound": "COc1cc(Cl)ccc1-c1nc(-c2ccc3c(c2)ncn3CCC(=O)N2CCCC2)no1",
    "RP-LC retention time [s]": 786
  },
  {
    "compound": "CN(C)c1ccc(C(=O)NCC(C)(O)c2ccco2)cc1 (stereo not drawn)",
    "RP-LC retention time [s]": 665
  },
  {
    "compound": "CCOC(=O)c1cc(S(=O)(=O)N2CCCC2C(=O)N2CCCCCC2)cn1C (stereo not drawn)",
    "RP-LC retention time [s]": 822
  },
  {
    "compound": "Cc1ccc(-c2nccn3cc(C(=O)NCc4ccncc4)nc23)cc1",
    "RP-LC retention time [s]": 633
  },
  {
    "compound": "CC(=O)NCc1csc(C2CCCN(C(=O)c3cc(F)ccc3F)C2)n1 (stereo not drawn)",
    "RP-LC retention time [s]": 667
  },
  {
    "compound": "O=c1c2cnc3nc(-c4ccccc4Cl)nn3c2ccn1CCc1c[nH]c2ccccc12",
    "RP-LC retention time [s]": 950
  },
  {
    "compound": "CCc1nn2c(CNC(=O)C3CCC3)c(-c3ccccc3)nc2s1",
    "RP-LC retention time [s]": 804
  },
  {
    "compound": "O=C1CCc2cc(S(=O)(=O)NCCCc3ccccc3)cc3c2N1CCC3",
    "RP-LC retention time [s]": 879
  },
  {
    "compound": "CCn1ccc2cc(S(=O)(=O)N3CCCC(C(=O)NCCc4ccco4)C3)ccc21 (stereo not drawn)",
    "RP-LC retention time [s]": 925
  },
  {
    "compound": "COCCO[C@H]1C(=O)N(C2CCN(S(=O)(=O)c3cn(C)cn3)CC2)[C@H]1c1ccncc1",
    "RP-LC retention time [s]": 556
  },
  {
    "compound": "O=C(Nc1ccc(Br)cc1F)c1ccc(N2CCOCC2)nn1",
    "RP-LC retention time [s]": 899
  },
  {
    "compound": "COc1cc(Cl)c(NS(=O)(=O)c2cc(-c3c(C)noc3NC(C)=O)ccc2OC)c(OC)c1",
    "RP-LC retention time [s]": 784
  },
  {
    "compound": "CCNC(=O)C1CCN(c2cc(SCC(=O)Nc3ccccc3OCC)ncn2)CC1",
    "RP-LC retention time [s]": 760
  },
  {
    "compound": "CC1CN(Cc2nc3c(c(=O)n(C)c(=O)n3C)n2Cc2ccc(Br)cc2)CC(C)O1 (stereo not drawn)",
    "RP-LC retention time [s]": 755
  },
  {
    "compound": "C=CCN1C(=O)C2(c3cc(Br)ccc31)c1[nH]c3ccccc3c1CCN2C(C)=O (stereo not drawn)",
    "RP-LC retention time [s]": 929
  },
  {
    "compound": "CC(C)(C)c1cc(C(=O)Nc2cc(F)ccc2F)nc2ccnn12",
    "RP-LC retention time [s]": 1450
  },
  {
    "compound": "COc1ccc([N+](=O)[O-])cc1NC(=O)Cc1ccc(S(C)(=O)=O)cc1",
    "RP-LC retention time [s]": 695
  },
  {
    "compound": "CN1C(=O)c2cccnc2Sc2cc(NC(=O)C3CCOC3)ccc21 (stereo not drawn)",
    "RP-LC retention time [s]": 619
  },
  {
    "compound": "COc1ccc(-c2nc(NCCN(Cc3ccco3)C3CCCC3)c3ccccc3n2)cc1",
    "RP-LC retention time [s]": 604
  },
  {
    "compound": "CC(C)(C)NC(=O)c1csc(-c2ccc(N3CCCC3)nc2)n1",
    "RP-LC retention time [s]": 670
  },
  {
    "compound": "O=C(NCCc1c[nH]c2ccc(Cl)cc12)c1cccc(NC(=O)c2nnc(C3CC3)s2)c1",
    "RP-LC retention time [s]": 928
  },
  {
    "compound": "CCOc1ccccc1CN1C(=O)C2(CCOCC2)CC1c1nnnn1C(C)(C)C (stereo not drawn)",
    "RP-LC retention time [s]": 799
  }
]
